- Test system: platelet agregation induced by PAF
- assay name: Inhibition of platelet agregation induced by PAF
- Assay type: cell-based, New Zealand rabbits
- stated conditions: Oryctolagus cuniculus, New Zealand rabbit platelets, agregometer at 57° C., Table I
measured endpoint: IC50 (nM)

>>> df
                                   molecule  data_value
0  COc1cc(NC(=O)N2CCc3c(sc4c3C(c3ccccc3Cl)=NCc3nnc(C)n3-4)C2)cc(OC)c1OC [Example 8]        11.5
1  Cc1nnc2n1-c1sc3c(c1C(c1ccccc1Cl)=NC2)CCN(C(=S)Nc1ccc(S(C)(=O)=O)cc1)C3 [Example 21]          24
2  Cc1nnc2n1-c1sc3c(c1C(c1ccccc1Cl)=NC2)CCN(C(=O)NC(C)C)C3 [Example 2]        23.5
3  Cc1nnc2n1-c1sc3c(c1C(c1ccccc1Cl)=NC2)CCN(C(=O)Nc1ccc(C(F)(F)F)cc1)C3 [Example 14]         150

###

- System: platelet agregation induced by PAF
- assay name: Inhibition of platelet agregation induced by PAF
- Assay type: cell-based, New Zealand rabbits
- stated conditions: Oryctolagus cuniculus, New Zealand rabbit platelets, agregometer at 57° C., Table I
# log10 IC50 annotations
measured endpoint: log10 IC50 (log10 of the value in nM)

>>> df
                                 smiles_repr  measured_endpoint  data_value
 0  Cc1nnc2n1-c1sc3c(c1C(c1ccccc1Cl)=NC2)CCN(C(=S)Nc1ccc(C(C)(C)C)cc1C(C)(C)C)C3         log10 IC50        2.56
 1  Cc1nnc2n1-c1sc3c(c1C(c1ccccc1Cl)=NC2)CCN(C(=S)NS(=O)(=O)c1ccnc2ccccc12)C3         log10 IC50        1.53
 2  Cc1nnc2n1-c1sc3c(c1C(c1ccccc1Cl)=NC2)CCN(C(=S)Nc1ccccc1C(F)(F)F)C3         log10 IC50        2.23
 3  COc1ccc(NC(=O)N2CCc3c(sc4c3C(c3ccccc3Cl)=NCc3nnc(C)n3-4)C2)cc1         log10 IC50        2.10
 4  Cc1nnc2n1-c1sc3c(c1C(c1ccccc1Cl)=NC2)CCN(C(=O)Nc1ccc(F)cc1F)C3         log10 IC50        1.77
 5  Cc1nnc2n1-c1sc3c(c1C(c1ccccc1Cl)=NC2)CCN(C(=O)NS(=O)(=O)c1cccnc1)C3         log10 IC50        2.00
 6  Cc1nnc2n1-c1sc3c(c1C(c1ccccc1Cl)=NC2)CCN(C(=O)NS(=O)(=O)c1cccs1)C3         log10 IC50        1.82
 7  CCCCCCCCCCCCCCCCNC(=S)N1CCc2c(sc3c2C(c2ccccc2Cl)=NCc2nnc(C)n2-3)C1         log10 IC50        2.47
 8  Cc1nnc2n1-c1sc3c(c1C(c1ccccc1Cl)=NC2)CCN(C(=O)Nc1cccc(Cl)c1Cl)C3         log10 IC50        1.74
 9  Cc1nnc2n1-c1sc3c(c1C(c1ccccc1Cl)=NC2)CCN(C(=O)Nc1ccc(C(C)(C)C)cc1)C3         log10 IC50        0.94
10  COc1ccc(NC(=S)N2CCc3c(sc4c3C(c3ccccc3Cl)=NCc3nnc(C)n3-4)C2)cc1         log10 IC50        2.48
11  Cc1nnc2n1-c1sc3c(c1C(c1ccccc1Cl)=NC2)CCN(C(=O)NC1CCCCC1)C3         log10 IC50        1.66
12  COc1cc(NC(=S)N2CCc3c(sc4c3C(c3ccccc3Cl)=NCc3nnc(C)n3-4)C2)cc(OC)c1OC         log10 IC50        1.59
13  Cc1nnc2n1-c1sc3c(c1C(c1ccccc1Cl)=NC2)CCN(C(=S)NC1CCCCC1)C3         log10 IC50        1.73

###

- Test system: bronchospasm induced by the PAF
- assay name: Action on the bronchospasm induced by the PAF in anaesthetized guinea-pigs
- Format: in vivo, guinea-pig
- stated conditions: male Hartley guinea-pigs; oral, 1 hour before PAF i.v.; change versus controls
measured endpoint: Percentage of action

In [3]: df
Out[3]:
                                   molecule  data_value
0  Cc1nnc2n1-c1sc3c(c1C(c1ccccc1Cl)=NC2)CCN(C(=S)Nc1ccc(C(C)(C)C)cc1C(C)(C)C)C3      -67.7%
1  Cc1nnc2n1-c1sc3c(c1C(c1ccccc1Cl)=NC2)CCN(C(=S)NC(C)C)C3      -70.4%
2  Cc1nnc2n1-c1sc3c(c1C(c1ccccc1Cl)=NC2)CCN(C(=S)NCc1ccco1)C3      -57.9%
3  COc1cc(NC(=O)N2CCc3c(sc4c3C(c3ccccc3Cl)=NCc3nnc(C)n3-4)C2)cc(OC)c1OC      -79.5%
4  COc1ccc(NC(=S)N2CCc3c(sc4c3C(c3ccccc3Cl)=NCc3nnc(C)n3-4)C2)cc1      -83.5%
5  Cc1nnc2n1-c1sc(CCC(=O)N3CCOCC3)cc1C(c1ccccc1Cl)=NC2 [WEB 2086, reference compound]      -68.0%
6  Cc1nnc2n1-c1sc3c(c1C(c1ccccc1Cl)=NC2)CCN(C(=S)NS(=O)(=O)c1ccccc1)C3      -52.9%
7  Cc1nnc2n1-c1sc3c(c1C(c1ccccc1Cl)=NC2)CCN(C(=S)NS(=O)(=O)c1ccc[nH]1)C3      -71.7%
8  Cc1nnc2n1-c1sc3c(c1C(c1ccccc1Cl)=NC2)CCN(C(=O)Nc1ccc(C(C)(C)C)cc1)C3      -66.2%
9  Cc1nnc2n1-c1sc3c(c1C(c1ccccc1Cl)=NC2)CCN(C(=O)Nc1ccc(Oc2ccccc2)cc1)C3      -81.8%

From: patent US5492906A
